- experimentNotes: chemical genetic growth profiling, strain panel (AID 1159580);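 also: tested at 20 µM; growth read once vehicle control cultures reached saturation at 30 °C; 1 = growth at the plate median or of vehicle wells; lower values mean less growth of the strain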
- conditionParameters: S. cerevisiae deletion strains, growth OD, locus YOL147C, strain pex11, active compounds read low
The campaign covered roughly 5,500 compounds. About 2,000 (36%) were called active. Not shown: some 18% with an inconclusive outcome. The list shows a part of the results. Where a SMILES comes first, the peptide text is derived from it. Bridges are numbered along the chain shown (N, C = ends). [ ]: non-standard residue; d: D form. The star is where a group is joined. Octanoyl(6-Me) = CCC(C)CCCCC(=O)*; Orn = NCCC[CH](N)C(=O)O; Dab = NCC[CH](N)C(=O)O
Below, each entry is listed with its recorded normalized growth.
measureName: normalized growth

>  <compound>
COc1c2occc2c(OC)c2c(=O)cc(C)oc12

>  <readoutValue>
1.01

$$$$
>  <compound>
COc1cc(/C=C/C=O)cc(OC)c1OC

>  <readoutValue>
1.01

$$$$
>  <compound>
CC(=O)OCC1=C(C(=O)O)N2C(=O)[C@@H](NC(=O)CCCC(N)C(=O)O)C2SC1 (stereo partly specified)

>  <readoutValue>
0.997

$$$$
>  <compound>
CCC(C)CCCCC(=O)NC(CCN)C(=O)NC(C(=O)NC(CCN)C(=O)NC1CCNC(=O)C(C(C)O)NC(=O)C(CCN)NC(=O)C(CCN)NC(=O)C(CC(C)C)NC(=O)C(Cc2ccccc2)NC(=O)C(CCN)NC1=O)C(C)O (stereo unspecified) ({Octanoyl(6-Me)}-[Dab]T[Dab][Dab][Dab]FL[Dab][Dab]T; lactam 4-C; configuration not given here)

>  <readoutValue>
1.01

$$$$
>  <compound>
CC1(C)C(=O)[C@@H]2O[C@@H]2[C@@]2(C)C1CC(=O)[C@]1(C)C2CC[C@@]2(C)[C@H](c3ccoc3)OC(=O)[C@H]3O[C@]321 (stereo partly specified)

>  <readoutValue>
0.988

$$$$
>  <compound>
CC(C)CC1NC(=O)C(CCCN)NC(=O)C(C(C)C)NC(=O)C2CCCN2C(=O)C(Cc2ccccc2)NC(=O)C(CC(C)C)NC(=O)C(CCCN)NC(=O)C(C(C)C)NC(=O)C2CCCN2C(=O)C(Cc2ccccc2)NC1=O (stereo unspecified) (cyclo(FPV[Orn]LFPV[Orn]L); configuration not given here)

>  <readoutValue>
1.01

$$$$
>  <compound>
C=C(C)[C@@H]1CC[C@]2(CO)CC[C@]3(C)[C@H](CCC4[C@@]5(C)CC[C@H](O)C(C)(C)C5CC[C@]43C)C12 (stereo partly specified)

>  <readoutValue>
0.992

$$$$
>  <compound>
COc1ccc2c(=O)ccoc2c1

>  <readoutValue>
1.01

$$$$
>  <compound>
COc1cc2c(cc1O)CCNC2C (stereo unspecified)

>  <readoutValue>
0.979

$$$$
>  <compound>
COC(=O)C[C@H]1C(C)(C)[C@@H](O)[C@@H]2CC3=C4C=C(OC)O[C@@H](c5ccoc5)[C@]4(C)CCC3[C@@]1(C)C2=O (stereo partly specified)

>  <readoutValue>
0.986

$$$$
>  <compound>
CC[C@@H](CO)NC(=O)[C@@H]1C=C2c3cccc4[nH]cc(c34)C[C@H]2N(C)C1

>  <readoutValue>
0.994

$$$$

Where these numbers come from: PubChem BioAssay AID1159580
